MEASUREMENT DESCRIPTION: ATG_ISRE_CIS: Attagene CIS-FACTORIAL HepG2 Assay for human Interferon Regulatory Factor 1 (IRF1) binding to an Interferon-Stimulated Response Element (ISRE) (AID 2282948)
PARTICULARS: HepG2 ISRE cis-reporter (Attagene), mRNA transcription readout; actives raise or lower the signal
Calls of active or inactive are those of the source. Rule for the calls: active = hit-call score of the fitted dose curve at least 0.9, where 1 is the maximum; inactive = score below 0.9.
Possible outcomes: active, inactive

COMPOUND	LABEL CLASS
Brc1ccc(Br)cc1	inactive
CC(C=O)Cc1ccc2c(c1)OCO2 (stereo unspecified)	inactive
C=CCOC(N)=O	inactive
C=CC(Cl)CCl (stereo unspecified)	inactive
Clc1cccc(Cl)c1Cl	inactive
[F][Sn]([c]1ccccc1)([c]1ccccc1)[c]1ccccc1	active
O=C(O)COc1cc(Cl)c(Cl)cc1Cl	inactive
O=C(NC(=O)c1c(F)cccc1F)Nc1cc(Cl)c(Oc2ncc(C(F)(F)F)cc2Cl)c(Cl)c1	inactive
NC(=O)CCl	inactive
OCCCCO	inactive
Cc1cccc(N=Nc2ccc(N(C)C)cc2)c1	inactive
C1CCC(C2CCCCC2)CC1	inactive
Cc1ccc(CCl)cc1	inactive
C[C@H]1C(=O)O[C@@H]2CCN3CC=C(COC(=O)[C@](C)(O)[C@]1(C)O)[C@H]23	inactive
CCCCC(CC)C(=O)Cl (stereo unspecified)	inactive
Nc1ncn[nH]1	inactive
